B1: library; numbered along this chain (parent)
chain: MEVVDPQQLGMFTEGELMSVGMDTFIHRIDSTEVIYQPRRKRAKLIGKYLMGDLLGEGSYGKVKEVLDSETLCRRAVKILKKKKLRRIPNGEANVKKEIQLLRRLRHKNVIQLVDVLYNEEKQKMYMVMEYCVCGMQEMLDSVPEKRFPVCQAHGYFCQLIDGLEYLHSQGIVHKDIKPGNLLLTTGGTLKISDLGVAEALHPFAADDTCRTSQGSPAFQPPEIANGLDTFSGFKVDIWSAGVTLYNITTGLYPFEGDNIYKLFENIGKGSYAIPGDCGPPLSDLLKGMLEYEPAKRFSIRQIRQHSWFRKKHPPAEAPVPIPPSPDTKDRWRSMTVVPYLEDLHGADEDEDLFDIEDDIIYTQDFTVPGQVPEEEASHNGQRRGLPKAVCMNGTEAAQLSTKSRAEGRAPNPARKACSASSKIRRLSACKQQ

- Variants of: B1
- Procedure details: STK11 functional score (HeLa growth suppression), rescaled enrichment; synonymous median = 1, nonsense median = 0 (normalised score)
- Measurement setup: with HeLa; variant type: missense
Recorded measurements of STK11 functional score, one per entry
Simply state the number, no unit and no words.

Solved cases (8 shown):
I111R    1.16
A273T    1.46
I46Y    1.29
K191T    1.16
V66Y    1.12
E376Y    1.56
N247T    0.951
E98V    0.117

// field: STK11 functional score; key: `E291Q` ; value = 1.36

// field: STK11 functional score; key: `P281L` ; value = 1.18

// field: STK11 functional score; key: `F354Y` ; value = 1.31

// field: STK11 functional score; key: `Q37L` ; value = 1.15

// field: STK11 functional score; key: `Q8K` ; value = 0.838

// field: STK11 functional score; key: `L285R` ; value = -0.201

// field: STK11 functional score; key: `E291A` ; value = 1.47

// field: STK11 functional score; key: `K431F` ; value = 1.59

// field: STK11 functional score; key: `D229Y` ; value = 0.508

// field: STK11 functional score; key: `E375A` ; value = 1.13

// field: STK11 functional score; key: `F204A` ; value = 1.03

// field: STK11 functional score; key: `D352W` ; value = 0.86

// field: STK11 functional score; key: `T336C` ; value = 1.27

// field: STK11 functional score; key: `Y131V` ; value = 0.785
